Test system: PCTK3
Construct: gene CDK18
Conditions: concentration: 1 μM, replicates: in singlicate; n = 1;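 also: KINOMEscan kinase panel screen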

| compound | %Inh / % |
| --- | --- |
| Cc1cccc2c(-c3ccncn3)c(-c3ccc(F)cc3)nn12 | 0 |
| COC(=O)C(NC(=O)NC1CCN(c2ccnc(Nc3ccc(F)cc3)n2)C1)c1ccccc1 (centres unmarked) | 24 |
| COc1cccc(C2=C(Nc3cc(Cl)c(O)c(Cl)c3)C(=O)NC2=O)c1 | 0 |
| COc1ccc(Nc2nccc(NCCNC(=O)Nc3cc(C)ccc3C)n2)cc1 | 2 |
| O=C1NC(=O)C(c2ccc(Cl)cc2)=C1Nc1ccc(O)cc1 | 0 |

###

A collection of compounds and their measured %Inh
System: MUSK
Details: concentration: 1 μM, replicates: in singlicate; n = 1

| compound | %Inh |
| --- | --- |
| Cc1ccc(NC(=O)Nc2ccccc2)cc1-c1ccc(C(=O)Nc2ccncc2)cc1 [GSK1398471] | 4% |
| Cc1ccccc1-c1cc(-c2c[nH]nc2-c2ccccn2)ccn1 [GW680061] | 10% |
| CC(=O)c1c(C)c2cnc(Nc3ccc(N4CCNCC4)cn3)nc2n(C2CCCC2)c1=O | 8% |
| COc1cccc(CNC(=O)NC2CCN(c3ccnc(Nc4ccc(F)cc4)n3)C2)c1 (stereo not shown) [GSK1379723] | 7% |
| Cn1cnc2c(N)ncnc21 [SKF-97623] | 0% |
| Cc1cccc2c(-c3ccncn3)c(-c3ccc(F)cc3)nn12 [GW515532] | 12% |
| CCn1c(-c2c(N)noc2C)nc2cnccc21 [SB-737856] | 6% |
| COc1ccc(Nc2nccc(N3CCC(NC(=O)C(C)c4ccc(Cl)cc4)C3)n2)cc1 (stereo not shown) [GSK1379735] | 24% |
| CC(=O)c1c(C)c2cnc(Nc3ccn(C)n3)nc2n(C2CCCC2)c1=O | 0% |
| COc1ccc(Nc2nccc(-c3ccc(NC(=O)c4cc5cc(F)ccc5[nH]4)cc3)n2)cc1 [GSK1229496] | 0% |
| COC(=O)c1cccc(NC(=O)NC2CCN(c3ccnc(Nc4ccc(F)cc4)n3)C2)c1 (stereo not shown) [GSK1379725] | 0% |
| O=c1cc(N2CCOCC2)nc2n(Cc3cccc(Cl)c3Cl)c3ccccc3n12 [GSK2299009] | 39% |
| Cl.Cl.Cl.N#Cc1ccc(CCNc2nccc(-c3cccc(CN4CCNCC4)c3)n2)cc1 [GSK2137462] | 14% |

###

System: FLT4
Conditions: concentration: 1 μM, replicates: in singlicate; n = 1
A collection of compounds and their measured %Inh

| compound | %Inh (%) |
| --- | --- |
| Cc1c(Cn2c(C)c(C)n3c(=O)cc(N4CCOCC4)nc23)cccc1C(F)(F)F | 0 |
| CC(C)c1cc(-c2ccc3c(N)n[nH]c3c2)nc(N)n1 | 0 |
| NS(=O)(=O)c1cccc(N/C=C2\C(=O)Nc3ccc(S(=O)(=O)Cc4c(Cl)cccc4Cl)cc32)c1 | 0 |
| CNC(=O)c1ccc(C)c(-n2c(C)cc(OCc3ccc(F)cc3F)c(Br)c2=O)c1 | 0 |
| Cn1cncc1C(=O)NC1CCN(c2ccnc(Nc3ccc(F)cc3)n2)C1 (stereo not drawn) | 99.1 |
| Cc1ccccc1Cn1ccn2c(=O)cc(N3CCOCC3)nc12 | 0 |
| Nc1ncnc2occ(-c3ccc4c(c3)CCN4C(=O)Cc3cc(F)ccc3F)c12 | 1 |
| CSc1ccc(-c2nc3n(c2-c2ccncc2)CCC3)cc1 | 0 |
| O=C(Nc1n[nH]c2nc(-c3ccco3)c(Br)cc12)C1CCN(Cc2ccccc2)C1.O=C(O)[C@H](O)[C@@H](O)C(=O)O (stereo not drawn) | 6 |

###

A collection of compounds and their measured %Inh
Tested on: AMPK-alpha1
Construct: gene PRKAA1
Conditions: concentration: 1 μM, replicates: in singlicate; n = 1

| compound | unit abbrev | %Inh |
| --- | --- | --- |
| COC(=O)c1cccc(NC(=O)NC2CCN(c3ccnc(Nc4ccc(OC)cc4)n3)C2)c1 (stereo not drawn) | % | 0 |
| COc1ccc(Nc2nccc(N3CCC(NC(=O)c4cc5ccccc5s4)C3)n2)cc1 (stereo not drawn) | % | 0 |
| Cn1cncc1-c1cc2c(Nc3ccc(OCc4ccccc4)cc3)ncnc2cn1 | % | 0 |
| Cc1ccc(NC(=O)Nc2ccc(Cl)cc2)cc1-c1ccc(C(=O)Nc2ccncc2)cc1 | % | 3 |
| CNc1nc(-c2ccc3c(N)n[nH]c3c2)cc(N2C[C@@H](C(=O)Nc3ccccc3)CC[C@H]2C)n1 | % | 0 |
| Cc1ccc(NC(=O)Nc2ccccc2F)cc1-c1ccc(C(=O)Nc2ccncc2)cc1 | % | 7 |
| Cc1c(Cn2c(C)c(C)n3c(=O)cc(N4CCOCC4)nc23)cccc1C(F)(F)F | % | 0 |
| CC(C)c1cc(-c2ccc3c(N)n[nH]c3c2)nc(N)n1 | % | 0 |
| CCn1c(-c2ccccc2)nc2cnccc21 | % | 0 |

###

Tested on: CDK4-cyclinD1
Conditions: concentration: 1 μM, replicates: in singlicate; n = 1
endpoint name: %Inh (%)

| compound | endpoint name | numeric readout |
| --- | --- | --- |
| Cn1cnc2c(N)ncnc21 [SKF-97623] | %Inh | 19 |
| Nc1nccc(-c2c(-c3ccc(F)cc3)ncn2C2CCN(Cc3ccccc3)CC2)n1 [SB-219980] | %Inh | 0 |
| CNC(=O)c1ccc(C)c(-n2c(C)cc(OCc3ccc(F)cc3F)c(Br)c2=O)c1 | %Inh | 0 |
| CCCCc1nn2ncccc2c1-c1ccnc(NC2CC2)n1 [GW684374] | %Inh | 0 |
| Cn1cncc1C(=O)NC1CCN(c2ccnc(Nc3ccc(F)cc3)n2)C1 (stereo not shown) [GSK1379717] | %Inh | 0 |
| COC(=O)C(NC(=O)NC1CCN(c2ccnc(Nc3ccc(F)cc3)n2)C1)c1ccccc1 (stereo not shown) [GSK1379712] | %Inh | 20 |
| COc1ccc(Nc2nccc(N3CCC(NC(=O)c4cc5ccccc5s4)C3)n2)cc1 (stereo not shown) [GSK1379738] | %Inh | 0 |
| COc1cc2ncnc(Nc3cccc(Br)c3)c2cc1OC.Cl [GI230329] | %Inh | 36 |
| O=C(Nc1n[nH]c2nc(-c3ccco3)c(Br)cc12)C1CCN(Cc2ccccc2)C1.O=C(O)[C@H](O)[C@@H](O)C(=O)O (stereo not shown) [SB-742034] | %Inh | 0 |
| Cc1ccccc1-c1cc(-c2c[nH]nc2-c2ccccn2)ccn1 [GW680061] | %Inh | 0 |
| Cc1ccc(-c2nc(Nc3ccncc3)c3ccccc3n2)s1 [GSK189015] | %Inh | 0 |
| COc1ccc(Nc2nccc(N3CCC(NC(=O)C(C)c4ccc(Cl)cc4)CC3)n2)cc1 (stereo not shown) [GSK1379812] | %Inh | 0 |
| Cn1cncc1-c1cc2c(Nc3ccc(OCc4ccccc4)cc3)ncnc2cn1 [GW281179] | %Inh | 0 |
| CSc1ccc(-c2nc3n(c2-c2ccncc2)CCC3)cc1 [SKF-105561] | %Inh | 0 |
| Cl.Cl.Cl.N#Cc1ccc(CCNc2nccc(-c3cccc(CN4CCNCC4)c3)n2)cc1 [GSK2137462] | %Inh | 0 |
| Cc1ccc(NC(=O)c2ccc(Cl)cc2)cc1-c1ccc(C(=O)Nc2ccncc2)cc1 [GSK1398467] | %Inh | 0 |
| COc1ccc(-c2coc3ccc(-c4nnc(C)o4)cc23)cc1 | %Inh | 0 |
| O=C(Nc1n[nH]c2nc(-c3cccs3)c(Br)cc12)C1CCCC1 [SB-743341] | %Inh | 11 |
| COc1cccc(C2=C(Nc3cc(Cl)c(O)c(Cl)c3)C(=O)NC2=O)c1 [SB-390767] | %Inh | 0 |

###

A collection of molecules and their measured %Inh
Test system: CDKL1
Settings: concentration: 1 μM, replicates: in singlicate; n = 1

| molecule | experimental system | %Inh |
| --- | --- | --- |
| O=C(Nc1n[nH]c2nc(-c3cccs3)c(Br)cc12)C1CC1 | CDKL1 | 34% |
| COc1ccc(Nc2nccc(NCCNC(=O)Nc3cc(C)ccc3C)n2)cc1 | CDKL1 | 0% |
| Cc1ccc(NC(=O)Nc2ccccc2F)cc1-c1ccc(C(=O)Nc2ccncc2)cc1 | CDKL1 | 7% |
| Cn1cncc1C(=O)NC1CCN(c2ccnc(Nc3ccc(F)cc3)n2)C1 (centres unmarked) | CDKL1 | 99% |
| O=C(Nc1n[nH]c2nc(-c3cccs3)c(Br)cc12)C1CCCC1 | CDKL1 | 10% |

###

Tested on: PKN2
Settings: concentration: 1 μM, replicates: in singlicate; n = 1
A collection of molecules and their measured %Inh
endpoint name: %Inh

| molecule | experimental system | result |
| --- | --- | --- |
| CC(=O)c1cccc(NC(=O)NC2CCN(c3ccnc(Nc4ccc(F)cc4)n3)C2)c1 (stereo not drawn) | PKN2 | 0% |
| CC(C)c1ccc(O)cc1Nc1ccnc2ccc(C(F)(F)F)cc12 | PKN2 | 0% |
| NS(=O)(=O)c1cccc(N/C=C2\C(=O)Nc3ccc(S(=O)(=O)Cc4c(Cl)cccc4Cl)cc32)c1 | PKN2 | 0% |
| CNc1cc(-c2ccc3c(N)n[nH]c3c2)nc(N)n1 | PKN2 | 0% |
| COC(=O)C(NC(=O)NC1CCN(c2ccnc(Nc3ccc(F)cc3)n2)C1)c1ccccc1 (stereo not drawn) | PKN2 | 0% |
| CS(=O)(=O)Cc1ccc(Nc2nccc(-c3c(-c4cccc(NC(=O)C5CCCCC5)c4)nn4ncccc34)n2)cc1 | PKN2 | 0% |
| CN1c2ccc(-c3ccc(C(N)=O)cc3)cc2-c2[nH]ncc2S1(=O)=O | PKN2 | 0% |
| Cn1cnc2c(N)ncnc21 | PKN2 | 0% |
| CNc1nc(-c2ccc3c(N)n[nH]c3c2)cc(N2C[C@@H](C(=O)NC3CCCCC3)OC[C@H]2C)n1 | PKN2 | 0% |
| CNc1nc(-c2ccc3c(N)n[nH]c3c2)cc(N2C[C@@H](C(=O)Nc3ccccc3)CC[C@H]2C)n1 | PKN2 | 0% |
| COc1ccc(-c2coc3ccc(-c4nnc(C)o4)cc23)cc1 | PKN2 | 18% |
| CS(=O)(=O)CCNCc1nc(-c2ccc3ncnc(Nc4ccc(OCc5ccccc5)c(Cl)c4)c3c2)cs1.Cl | PKN2 | 0% |
| CS(=O)(=O)CCNCc1nc(-c2ccc3ncnc(Nc4ccc5c(cnn5Cc5ccccc5)c4)c3c2)cs1.Cl.Cl | PKN2 | 15% |
| Cc1ccccc1Cn1ccn2c(=O)cc(N3CCOCC3)nc12 | PKN2 | 0% |
| O=c1cc(N2CCOCC2)nc2n(Cc3ccccc3F)ccn12 | PKN2 | 0% |
| Cl.Cl.Cl.N#Cc1ccc(CCNc2nccc(-c3cccc(CN4CCNCC4)c3)n2)cc1 | PKN2 | 2% |
| COc1ccc(CSc2nnc(-c3ccc4c(c3)CCO4)o2)cc1 | PKN2 | 0% |
| COc1ccc(CSc2nnc(-c3ccc4nccn4c3)o2)cc1C(F)(F)F | PKN2 | 33% |
